Entries annotated with measured pIC50
- System: phosphorylation of ERK, KRAS G12C in NCJ-H358 cells
- Assay Text: pERK inhibition assay, KRAS G12C
- Type: cell-based, human
- Measurement Conditions: Homo sapiens, 4 hours
Please express pIC50 as -log10 of the molar concentration.

>  <Molecule>
CCn1c(-c2cc(N3CCN(CC(F)(F)F)CC3)cnc2[C@H](C)OC)c2c3cc(c(F)cc31)-c1csc(n1)C[C@H](NC(=O)[C@H](C(C)C)N1CCCC3(CCN(C(=O)[C@H](F)Cl)CC3)C1=O)C(=O)N1CCC[C@H](N1)C(=O)OCC(C)(C)C2 (atropisomer, axis not shown; (M)) [Example 48]

>  <System>
phosphorylation of ERK, KRAS G12C in NCJ-H358 cells

>  <Measured>
8.70

$$$$
>  <Molecule>
CCn1c(-c2cc(N3CCN(CC(F)(F)F)CC3)cnc2[C@H](C)OC)c2c3cc(c(F)cc31)-c1csc(n1)C[C@H](NC(=O)[C@H](C(C)C)N1CC[C@@]3(CCN(C(=O)[C@H](F)Cl)C3)C1=O)C(=O)N1CCC[C@H](N1)C(=O)OCC(C)(C)C2 (atropisomer, axis not shown; (M)) [Example 35]

>  <System>
phosphorylation of ERK, KRAS G12C in NCJ-H358 cells

>  <Measured>
8.52

$$$$

Which pIC50 is reported for this molecule? CO[C@@H](C)c1ncc(N2CCN(C)CC2)cc1-c1c2c3cc(c(C)cc3n1CC(F)(F)F)-c1csc(n1)C[C@H](NC(=O)[C@H](C(C)C)N(C)C(=O)[C@H]1CCN(C(=O)[C@H](F)Cl)C1)C(=O)N1CCC[C@H](N1)C(=O)OCC(C)(C)C2 (atropisomer, axis not shown; (M)) [Example 3]
7.49

* * *

The entries below come with measured pIC50 values attached.
- Tested on: phosphorylation of ERK, KRAS G12C in NCJ-H358 cells
- Assay Text: pERK inhibition assay, KRAS G12C
- Type: cell-based, human
- Measurement Conditions: Homo sapiens, 4 hours
Scale explanation: pIC50 corresponds to minus log10 of a concentration expressed in moles per litre.

>  <Molecule>
CO[C@@H](C)c1ncc(N2CCN(C)CC2)cc1-c1c2c3cc(c(F)cc3n1CC(F)(F)F)-c1cc(O)cc(c1)C[C@H](NC(=O)[C@H](C(C)C)N(C)C(=O)[C@H]1CCN(C(=O)[C@H](F)Cl)C1)C(=O)N1CCC[C@H](N1)C(=O)OCC(C)(C)C2 (atropisomer, axis not shown; (M))

>  <pIC50>
8.70

$$$$

We now examine a further molecule.
# pIC50 lookup, item CO[C@@H](C)c1ncc(N2CCN(C)CC2)cc1-c1c2c3cc(c(F)cc3n1CC(F)(F)F)-c1csc(n1)C[C@H](NC(=O)[C@H](C(C)C)N1CCCC3(CCN(C(=O)[C@H](F)Cl)CC3)C1=O)C(=O)N1CCC[C@H](N1)C(=O)OCC(C)(C)C2 (atropisomer, axis not shown; (M))
9.00

* * *

- System: phosphorylation of ERK, KRAS G12V in SW620
- Assay Text: pERK inhibition assay, KRAS G12V
- Format: cell-based, human
- Measurement Conditions: Homo sapiens, SW-620, SW620, 4 hours
Attribute Measured: pIC50
The quantity pIC50 is defined as the negative base-10 logarithm of the molar concentration.

Item CCn1c(-c2cc(N3CCOCC3)cnc2[C@H](C)OC)c2c3cc(c(F)cc31)-c1csc(n1)C[C@H](NC(=O)[C@H](C(C)C)N1CC[C@@]3(CCN(C(=O)[C@H](F)Cl)C3)C1=O)C(=O)N1CCC[C@H](N1)C(=O)OCC(C)(C)C2 (atropisomer, axis not shown; (M)) [Example 53] has what recorded pIC50?
7.21

Which measured pIC50 value corresponds to CCn1c(-c2cc(N3CCN(C)CC3)cnc2[C@H](C)OC)c2c3cc(c(F)cc31)-c1csc(n1)C[C@H](NC(=O)[C@@H](COC1CN(C(=O)[C@H](F)Cl)C1)C(C)C)C(=O)N1CCC[C@H](N1)C(=O)OCC(C)(C)C2 (atropisomer, axis not shown; (M)) [Example 40] ?
7.64

Suppose we examine the compound CCn1c(-c2cc(N3CCN(CC(F)(F)F)CC3)cnc2[C@H](C)OC)c2c3cc(c(F)cc31)-c1csc(n1)C[C@H](NC(=O)[C@H](C(C)C)N1CC[C@@]3(CCN(C(=O)[C@H](F)Cl)C3)C1=O)C(=O)N1CCC[C@H](N1)C(=O)OCC(C)(C)C2 (atropisomer, axis not shown; (M)) [Example 35] ; what pIC50 value has been reported?
7.30

Using the record for CO[C@@H](C)c1ncc(N2CCN(C)CC2)cc1-c1c2c3cc(c(F)cc3n1CC(F)(F)F)-c1csc(n1)C[C@H](NC(=O)[C@H](C(C)C)N1CC[C@]3(CCN(C(=O)[C@H](F)Cl)C3)C1=O)C(=O)N1CCC[C@H](N1)C(=O)OCC(C)(C)C2 (atropisomer, axis not shown; (M)) [Example 5] , report its pIC50.
7.59

Sample CO[C@@H](C)c1ncc(N2CCN(C)CC2)cc1-c1c2c3cc(c(F)cc3n1CC(F)(F)F)-c1csc(n1)C[C@H](NC(=O)[C@H](C(C)C)N1CCC[C@]3(CCN(C(=O)[C@H](F)Cl)C3)C1=O)C(=O)N1CCC[C@H](N1)C(=O)OCC(C)(C)C2 (single isomer, unassigned) [Example 18] — what was its pIC50?
7.74

What measured pIC50 goes with CCn1c(-c2cc(N3CCN(C)CC3)cnc2[C@H](C)OC)c2c3cc(c(F)cc31)-c1csc(n1)C[C@H](NC(=O)[C@H](C(C)C)N1CCCC3(CCN(C(=O)[C@H](F)Cl)CC3)C1=O)C(=O)N1CCC[C@H](N1)C(=O)OCC(C)(C)C2 (atropisomer, axis not shown; (M)) [Example 36] ?
7.89

Reported pIC50, compound CO[C@@H](C)c1ncc(N2CCN(CC(F)(F)F)CC2)cc1-c1c2c3cc(c(F)cc3n1CC(F)(F)F)-c1csc(n1)C[C@H](NC(=O)[C@H](C(C)C)N1CC[C@]3(CCN(C(=O)[C@H](F)Cl)C3)C1=O)C(=O)N1CCC[C@H](N1)C(=O)OCC(C)(C)C2 (atropisomer, axis not shown; (M)) [Example 45] : ____
7.70
